Biological target: Human FAAH (Homo sapiens)
Construct: The full length FAAH was subcloned into the mammalian expression vector, pcDEF.neo; expressed in transfected cells
Sequence (O00519 whole entry): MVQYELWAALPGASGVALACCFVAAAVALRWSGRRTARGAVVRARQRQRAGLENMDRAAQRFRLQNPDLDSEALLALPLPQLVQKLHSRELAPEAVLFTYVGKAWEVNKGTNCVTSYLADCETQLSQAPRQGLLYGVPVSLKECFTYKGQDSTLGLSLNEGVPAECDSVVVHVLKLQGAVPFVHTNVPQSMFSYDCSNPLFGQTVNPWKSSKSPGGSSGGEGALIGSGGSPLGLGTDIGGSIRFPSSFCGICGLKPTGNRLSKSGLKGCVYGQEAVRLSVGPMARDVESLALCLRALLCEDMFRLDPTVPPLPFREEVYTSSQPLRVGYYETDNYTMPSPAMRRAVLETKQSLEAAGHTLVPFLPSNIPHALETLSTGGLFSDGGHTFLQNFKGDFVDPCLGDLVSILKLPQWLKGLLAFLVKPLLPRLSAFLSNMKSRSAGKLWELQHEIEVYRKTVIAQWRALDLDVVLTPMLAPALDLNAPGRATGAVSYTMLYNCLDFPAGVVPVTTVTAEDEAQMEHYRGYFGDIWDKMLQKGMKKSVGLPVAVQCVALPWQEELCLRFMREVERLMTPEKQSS
Test: Human FAAH lysate assay (CHO cell lysate, AAMCA fluorescent substrate)
Type: biochemical
Settings: human FAAH lysate; read-out: hFAAH lysate IC50

molecule | IC50 (nM)
Cn1c(-c2ccccn2)nc(-c2ccc(C(C)(C)O)nc2)c1Sc1ccc(Cl)cn1 [Example 106] | 37.8
Cn1c(-c2ccccn2)nc(-c2ccc(C(C)(C)O)nc2)c1Sc1ccc(F)cn1 [Example 109] | 134
Cn1c(-c2ccccn2)nc(-c2ccc(-c3cccs3)cc2)c1Sc1ccc(Cl)cc1 [Example 121] | 18.5
CN(C)C(=O)c1ccc2cc(-c3nc(C4CC4)n(C)c3Sc3ccc(Cl)cn3)ccc2n1 [Example 132] | 144
Cn1c(-c2ccc(F)cc2)nc(-c2ccc(C(C)(C)O)nc2)c1Sc1ccc(Cl)cc1 [Example 115] | 67
Cn1c(-c2ccccn2)nc(-c2ccc(-c3ccncc3)cc2)c1Sc1ccc(Cl)cn1 [Example 118] | 7.7
Cn1c(-c2ccccn2)nc(-c2ccc(C(C)(C)O)nc2)c1Sc1ccc(Cl)cc1F [Example 110] | 33.7
Cn1c(-c2ccsc2)nc(-c2ccc(S(C)(=O)=O)cc2)c1Sc1ccc(Cl)cc1 [Example 135] | 25.9
COc1cnc(Sc2c(-c3ccc(S(C)(=O)=O)nc3)nc(-c3ccccn3)n2C)nc1 [Example 104] | 202
Cn1c(-c2nccs2)nc(-c2ccc(S(C)(=O)=O)cc2)c1Sc1ccc(Cl)cc1 [Example 138] | 24.8
Cn1c(-c2ccccn2)nc(-c2ccc(S(C)(=O)=O)nc2)c1Sc1ccc(F)cc1F [Example 102] | 15.4
Cn1c(-c2ccc(F)c(F)c2)nc(-c2ccc(C(C)(C)O)nc2)c1Sc1ccc(Cl)cc1 [Example 114] | 87.4
